System: human cathepsin K (Homo sapiens, UniProt P43235)
Sequence (P43235 115-329): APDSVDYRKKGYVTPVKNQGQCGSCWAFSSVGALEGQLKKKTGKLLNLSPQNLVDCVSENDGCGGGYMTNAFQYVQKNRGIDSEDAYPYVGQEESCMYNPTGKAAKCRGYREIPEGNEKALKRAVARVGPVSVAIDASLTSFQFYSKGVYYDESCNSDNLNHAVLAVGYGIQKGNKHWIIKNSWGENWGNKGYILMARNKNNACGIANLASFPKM
Experimental readout: IC50 (µM)
Dear colleague, please return just the value in µM, with no unit written.

Which IC50 value is on record for CC(=O)N[C@@H](Cc1ccccc1)C(=O)NCC#N [compound 1, Ac-Phe-NHCH2CN, reference compound] ?
12

====

System: human cathepsin B (Homo sapiens)
Experimental readout: IC50
For clarity, give the value followed by its unit.

Under human cathepsin B (Homo sapiens): IC50 value of CC(=O)N[C@@H](Cc1ccccc1)C(=O)NCC#N [compound 1, Ac-Phe-NHCH2CN, reference compound] ?
133 µM

====

System: human cathepsin L (Homo sapiens, UniProt P07711)
Sequence (P07711 114-333): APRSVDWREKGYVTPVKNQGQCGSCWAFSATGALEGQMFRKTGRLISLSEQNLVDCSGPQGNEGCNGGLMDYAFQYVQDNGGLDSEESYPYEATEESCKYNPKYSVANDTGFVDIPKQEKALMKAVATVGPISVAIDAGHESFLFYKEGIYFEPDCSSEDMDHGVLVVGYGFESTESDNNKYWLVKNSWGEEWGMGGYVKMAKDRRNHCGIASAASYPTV
Experimental readout: IC50 (µM)
Dear colleague, please return just the value in µM, with no unit written.

Which IC50 value is on record for CC(=O)N[C@@H](Cc1ccccc1)C(=O)NCC#N [compound 1, Ac-Phe-NHCH2CN, reference compound] ?
72
